Hi there, I'd appreciate the recorded Enzyme degradation CDK2 (% remaining) @ 0.1 μM for every entry that follows.
molecular target: CDK2 (Homo sapiens, UniProt P24941); construct: endogenous in cells; host or cells: MDA-MB-231; test: CDK protein degradation activity (Western blotting), CDK2; assay type: cell-based; settings: MDA-MB-231 cells, 0.1 μM, 16 hours, Western blot

Name the value of Enzyme degradation CDK2 (% remaining) @ 0.1 μM reported for O=C1CC[C@@H](c2ccc(OCC(=O)N3CCC4(CC3)CC(N3CCN(c5ccc(Nc6ncnc7c6ncn7[C@H]6C[C@@H](NC(=O)c7cccc(C(F)(F)F)n7)C6)cc5)CC3)C4)cc2)C(=O)N1 [Compound 439] when tested on CDK2 (Homo sapiens, UniProt P24941).
50/50/50%

Name the value of Enzyme degradation CDK2 (% remaining) @ 0.1 μM reported for O=C1CC[C@H](N2C(=O)c3ccc(N4CC(C(=O)N5CCN(C6CN(c7ccc(Nc8ncnc9c8ncn9[C@H]8C[C@@H](NC(=O)Cc9ccccc9)C8)cc7)C6)CC5)C4)cc3C2=O)C(=O)N1 [Compound 373] when tested on CDK2 (Homo sapiens, UniProt P24941).
30/30/30%

Name the value of Enzyme degradation CDK2 (% remaining) @ 0.1 μM reported for Cc1cccc(C(=O)N[C@H]2C[C@@H](n3cnc4c(NCCC5CCN(CC6CCN(C(=O)C7CCN(c8cc9c(cc8F)C(=O)N(C8CCC(=O)NC8=O)C9=O)CC7)CC6)CC5)ncnc43)C2)n1 (stereo partly drawn) [Compound 450] when tested on CDK2 (Homo sapiens, UniProt P24941).
50/50/50%

* * *

Hi there, I'd appreciate the recorded Enzyme degradation CDK2 (% remaining) @ 1 μM for every entry that follows.
molecular target: CDK2 (Homo sapiens); construct: endogenous in cells; host or cells: MDA-MB-231; assay: CDK protein degradation activity (Western blotting), CDK2; assay type: cell-based; settings: MDA-MB-231 cells, 1 μM, 16 hours, Western blot

Please look at this molecule and report its Enzyme degradation CDK2 (% remaining) @ 1 μM: Cc1cccc(C(=O)N[C@H]2C[C@@H](n3cnc4c(NCCCN5CCN(CC6CCN(C(=O)COc7cccc([C@@H]8CCC(=O)NC8=O)c7)CC6)CC5)ncnc43)C2)n1
50%

Please look at this molecule and report its Enzyme degradation CDK2 (% remaining) @ 1 μM: Cc1cccc(C(=O)N[C@H]2C[C@@H](n3cnc4c(Nc5ccc(N6CCN(CCC7CCN(C(=O)COc8ccc([C@@H]9CCC(=O)NC9=O)cc8)CC7)CC6)cc5)ncnc43)C2)n1
30/30/30%

Please look at this molecule and report its Enzyme degradation CDK2 (% remaining) @ 1 μM: Cc1cccc(C(=O)N[C@H]2C[C@@H](n3cnc4c(NCc5ccc(OCC6CCN(C(=O)COc7ccc8c(c7)C(=O)N([C@H]7CCC(=O)NC7=O)C8=O)CC6)cc5)ncnc43)C2)n1
50%

Please look at this molecule and report its Enzyme degradation CDK2 (% remaining) @ 1 μM: O=C1CC[C@H](N2C(=O)c3ccc(N4CC(C(=O)N5CCC(CCN6CCN(c7ccc(Nc8ncnc9c8ncn9C8CC(NC(=O)Cc9ccccc9)C8)cc7)CC6)CC5)C4)cc3C2=O)C(=O)N1 (stereo partly shown)
50%

* * *

Hi there, I'd appreciate the recorded Enzyme degradation CDK2 (% remaining) @ 1 μM for every entry that follows.
biological target: CDK2 (Homo sapiens); construct: endogenous in cells; host or cells: MDA-MB-231; assay: CDK protein degradation activity (Western blotting), CDK2; type: cell-based; details: MDA-MB-231 cells, 1 μM, 16 hours, Western blot

Please look at this molecule and report its Enzyme degradation CDK2 (% remaining) @ 1 μM: O=C1CC[C@H](n2nnc3ccc(N4CCC(CN5CCN(c6ccc(Nc7ncnc8c7ncn8C7CC(NC(=O)c8cccc(F)n8)C7)cc6)CC5)CC4)cc3c2=O)C(=O)N1 (stereo partly drawn)
10/10/10%

Please look at this molecule and report its Enzyme degradation CDK2 (% remaining) @ 1 μM: O=C1CC[C@H](N2C(=O)c3cc(F)c(N4CCC5(CC4)CC(N4CCN(c6ccc(Nc7ncnc8c7ncn8[C@H]7C[C@@H](NC(=O)Cc8ccccc8)C7)cc6)CC4)C5)cc3C2=O)C(=O)N1
50%

Please look at this molecule and report its Enzyme degradation CDK2 (% remaining) @ 1 μM: O=C1CC[C@H](n2nnc3ccc(N4CCC(CN5CCN(c6ccc(Nc7ncnc8c7ncn8[C@H]7C[C@@H](NC(=O)c8cccc(C(F)(F)F)n8)C7)cc6)CC5)CC4)cc3c2=O)C(=O)N1
10/10/10%
